target: Recombinant human TLR7 (Homo sapiens, UniProt Q9NYK1); construct: TLR7 in vector pUNO, blasticidin selection; assay: Human TLR7 Assay (SEAP reporter); details: HEK293 cell line stably expressing human TLR7 and pNiFty2-SEAP reporter; SEAP induction after overnight incubation at 37° C., 0.1% (v/v) DMSO
Property Measured: log10 EC50 (log10 of the value in nM)
Hi team, quick reminder: these entries are log10 of EC50 (nM).

[
  {
    "Compound Structure String": "CCCCNc1nc(N)nc(C)c1Cc1ccc(CC(=O)OCC2CCN(C)CC2)cc1O",
    "Property Measured": "log10 EC50",
    "Assay Result": 2.10
  }
]

// query # input molecule: "CCCCNc1nc(N)nc(C)c1Cc1ccc(CC(=O)OCCCS(C)(=O)=O)cc1OC" ; wanted: its log10 EC50
// result 1.30

// query # input molecule: "CCCCCNc1nc(N)nc(C)c1CCCNC(=O)Cc1ccc(CC(=O)OC)cc1" ; wanted: its log10 EC50
// result 3.00

// query # input molecule: "CCCCCNc1nc(N)nc(C)c1Cc1ccc(CC(=O)OCCCCN2CCS(=O)(=O)CC2)cc1" ; wanted: its log10 EC50
// result 3.40

// query # input molecule: "CCCCCNc1nc(N)nc(C)c1Cc1ccc(CC(=O)OCCCCN2CCC(N(C)C)CC2)cc1" ; wanted: its log10 EC50
// result 2.80

// query # input molecule: "CCCCCNc1nc(N)nc(C)c1CCCN(Cc1cccc(CC(=O)OC)c1)S(=O)(=O)c1cn(C)cn1" ; wanted: its log10 EC50
// result 3.10

// query # input molecule: "CCCCCNc1nc(N)nc(C)c1Cc1ccc(CC(=O)OCCN(C)C)cc1" ; wanted: its log10 EC50
// result 2.40

// query # input molecule: "CCCCCNc1nc(N)nc(C)c1Cc1cccc(CC(=O)OC)c1" ; wanted: its log10 EC50
// result 3.30

----------
biological target: Recombinant human TLR7 (Homo sapiens, UniProt Q9NYK1); construct: TLR7 in vector pUNO, blasticidin selection; test: Human TLR7 Assay (SEAP reporter); settings: HEK293 cell line stably expressing human TLR7 and pNiFty2-SEAP reporter; SEAP induction after overnight incubation at 37° C., 0.1% (v/v) DMSO;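 also: SEAP driven by an NFkB-responsive composite promoter, pEC50 read at half of each compound's own maximal SEAP induction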
pEC50: −log10 of the molar value.
TRUE means recorded pEC50 is 6 or above; FALSE means it is below 6.

[
  {
    "Compound": "CCCCCNc1nc(N)nc(C)c1Cc1ccc(CC(=O)OC)cc1OC [Example 21]",
    "Category Label": "TRUE"
  },
  {
    "Compound": "CCC[C@@H](CCO)Nc1nc(N)nc(C)c1Cc1cc(CC(=O)OC)ccc1F [Example 42]",
    "Category Label": "TRUE"
  },
  {
    "Compound": "CCCCCNc1nc(N)nc(C)c1CCCN(Cc1ccc(CC(=O)OC)cc1)C(=O)CN1CCOCC1 [Example 27]",
    "Category Label": "FALSE"
  },
  {
    "Compound": "CCCCCNc1nc(N)nc(C)c1Cc1ccc(OCC(=O)OC)cc1OC [Example 40]",
    "Category Label": "TRUE"
  }
]

Shift focus to the following entry.
// query // inclusive: pEC50 at least 6? input: CCC[C@@H](CCO)Nc1nc(N)nc(C)c1Cc1ccc(CC(=O)OC)cc1O [Example 75]
// result TRUE

----------
Molecular target: Recombinant human TLR7 (Homo sapiens, UniProt Q9NYK1)
Construct: TLR7 in vector pUNO, blasticidin selection
Sequence (Q9NYK1 27-1049): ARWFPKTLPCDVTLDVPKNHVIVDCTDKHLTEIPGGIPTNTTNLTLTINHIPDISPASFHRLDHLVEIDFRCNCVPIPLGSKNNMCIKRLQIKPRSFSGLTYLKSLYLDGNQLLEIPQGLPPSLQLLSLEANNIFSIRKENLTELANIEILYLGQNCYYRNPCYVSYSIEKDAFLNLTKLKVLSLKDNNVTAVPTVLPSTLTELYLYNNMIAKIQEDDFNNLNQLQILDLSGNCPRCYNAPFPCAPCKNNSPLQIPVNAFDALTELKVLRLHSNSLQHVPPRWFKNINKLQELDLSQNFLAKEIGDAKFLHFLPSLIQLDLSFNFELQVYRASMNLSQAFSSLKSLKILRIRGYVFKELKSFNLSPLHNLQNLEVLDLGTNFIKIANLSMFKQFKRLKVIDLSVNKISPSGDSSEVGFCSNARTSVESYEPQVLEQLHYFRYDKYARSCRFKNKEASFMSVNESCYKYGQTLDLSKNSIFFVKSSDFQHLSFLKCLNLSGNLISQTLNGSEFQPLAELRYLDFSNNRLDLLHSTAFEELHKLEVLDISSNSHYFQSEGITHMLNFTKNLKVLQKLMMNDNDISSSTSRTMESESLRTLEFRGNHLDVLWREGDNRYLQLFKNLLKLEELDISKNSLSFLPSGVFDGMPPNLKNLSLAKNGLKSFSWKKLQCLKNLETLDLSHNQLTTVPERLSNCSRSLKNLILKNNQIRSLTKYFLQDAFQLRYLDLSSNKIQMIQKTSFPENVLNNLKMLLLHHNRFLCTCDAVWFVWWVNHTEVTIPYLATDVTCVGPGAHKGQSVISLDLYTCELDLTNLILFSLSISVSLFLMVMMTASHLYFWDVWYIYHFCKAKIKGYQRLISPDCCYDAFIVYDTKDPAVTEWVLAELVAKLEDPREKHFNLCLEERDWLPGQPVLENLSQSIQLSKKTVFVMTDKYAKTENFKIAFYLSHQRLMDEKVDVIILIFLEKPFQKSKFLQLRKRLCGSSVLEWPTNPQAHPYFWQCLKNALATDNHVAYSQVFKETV
Assay: Human TLR7 Assay (SEAP reporter)
Conditions: HEK293 cell line stably expressing human TLR7 and pNiFty2-SEAP reporter; SEAP induction after overnight incubation at 37° C., 0.1% (v/v) DMSO
EC50 reference
Use nM as the unit, but write only the number.

Use these answered entries as a reference point.
[
  {
    "Compound Structure String": "CCCCCNc1nc(N)nc(C)c1Cc1cccc(CC(=O)OCC2CCN(C)CC2)c1",
    "Assayed System": "Recombinant human TLR7 (Homo sapiens, UniProt Q9NYK1)",
    "Unit String": "nM",
    "Assay Result": 501
  },
  {
    "Compound Structure String": "CCCCCNc1nc(N)nc(C)c1Cc1ccc(CC(=O)OCCCN2CCOCC2)cc1",
    "Assayed System": "Recombinant human TLR7 (Homo sapiens, UniProt Q9NYK1)",
    "Unit String": "nM",
    "Assay Result": 126
  },
  {
    "Compound Structure String": "CCCCCNc1nc(N)nc(C)c1Cc1cc(CC(=O)OC)ccc1OC",
    "Assayed System": "Recombinant human TLR7 (Homo sapiens, UniProt Q9NYK1)",
    "Unit String": "nM",
    "Assay Result": 79.4
  },
  {
    "Compound Structure String": "CCCCCNc1nc(N)nc(C)c1Cc1ccc(CC(=O)OC2CCN(C)CC2)cc1",
    "Assayed System": "Recombinant human TLR7 (Homo sapiens, UniProt Q9NYK1)",
    "Unit String": "nM",
    "Assay Result": 126
  },
  {
    "Compound Structure String": "CCCCNc1nc(N)nc(C)c1Sc1ccc(CC(=O)OCC2CCN(C)CC2)cc1",
    "Assayed System": "Recombinant human TLR7 (Homo sapiens, UniProt Q9NYK1)",
    "Unit String": "nM",
    "Assay Result": 63.1
  },
  {
    "Compound Structure String": "CCCC[C@@H](CCO)Nc1nc(N)nc(C)c1CCCN(Cc1ccc(CC(=O)OC)cc1)C(=O)CN(C)C",
    "Assayed System": "Recombinant human TLR7 (Homo sapiens, UniProt Q9NYK1)",
    "Unit String": "nM",
    "Assay Result": 2510
  },
  {
    "Compound Structure String": "CC[C@H](O)CNc1nc(N)nc(C)c1Cc1ccc(CC(=O)OC)cc1OC",
    "Assayed System": "Recombinant human TLR7 (Homo sapiens, UniProt Q9NYK1)",
    "Unit String": "nM",
    "Assay Result": 39.8
  },
  {
    "Compound Structure String": "CCCCCNc1nc(N)nc(C)c1Cc1ccc(CC(=O)OCC2CCN(C)CC2)cc1",
    "Assayed System": "Recombinant human TLR7 (Homo sapiens, UniProt Q9NYK1)",
    "Unit String": "nM",
    "Assay Result": 200
  },
  {
    "Compound Structure String": "CCCCCNc1nc(N)nc(C)c1CCCCNCc1cccc(CC(=O)OC)c1",
    "Assayed System": "Recombinant human TLR7 (Homo sapiens, UniProt Q9NYK1)",
    "Unit String": "nM",
    "Assay Result": 1000
  },
  {
    "Compound Structure String": "CCCCCNc1nc(N)nc(C)c1CCCN(Cc1cccc(CC(=O)OC)c1)C(=O)CN1CCC(O)CC1",
    "Assayed System": "Recombinant human TLR7 (Homo sapiens, UniProt Q9NYK1)",
    "Unit String": "nM",
    "Assay Result": 2510
  }
]

// query # input compound: "CCCCNc1nc(N)nc(C)c1Cc1ccc(CC(=O)OC)cc1O" ; wanted: its EC50
// result 63.1

// query # input compound: "CCCC[C@@H](CCO)Nc1nc(N)nc(C)c1CCCNCc1ccc(CC(=O)OC)cc1" ; wanted: its EC50
// result 1580

// query # input compound: "CCCCCNc1nc(N)nc(C)c1CCCN(Cc1cccc(CC(=O)OC)c1)C(=O)CCCN(C)C" ; wanted: its EC50
// result 1580
